Data credit: patent US20190233493A1

- experimental-system: T1, RXFP1 receptor (UniProt Q9HBX9 1-757, limits assumed)
- T1 sequence (looked up): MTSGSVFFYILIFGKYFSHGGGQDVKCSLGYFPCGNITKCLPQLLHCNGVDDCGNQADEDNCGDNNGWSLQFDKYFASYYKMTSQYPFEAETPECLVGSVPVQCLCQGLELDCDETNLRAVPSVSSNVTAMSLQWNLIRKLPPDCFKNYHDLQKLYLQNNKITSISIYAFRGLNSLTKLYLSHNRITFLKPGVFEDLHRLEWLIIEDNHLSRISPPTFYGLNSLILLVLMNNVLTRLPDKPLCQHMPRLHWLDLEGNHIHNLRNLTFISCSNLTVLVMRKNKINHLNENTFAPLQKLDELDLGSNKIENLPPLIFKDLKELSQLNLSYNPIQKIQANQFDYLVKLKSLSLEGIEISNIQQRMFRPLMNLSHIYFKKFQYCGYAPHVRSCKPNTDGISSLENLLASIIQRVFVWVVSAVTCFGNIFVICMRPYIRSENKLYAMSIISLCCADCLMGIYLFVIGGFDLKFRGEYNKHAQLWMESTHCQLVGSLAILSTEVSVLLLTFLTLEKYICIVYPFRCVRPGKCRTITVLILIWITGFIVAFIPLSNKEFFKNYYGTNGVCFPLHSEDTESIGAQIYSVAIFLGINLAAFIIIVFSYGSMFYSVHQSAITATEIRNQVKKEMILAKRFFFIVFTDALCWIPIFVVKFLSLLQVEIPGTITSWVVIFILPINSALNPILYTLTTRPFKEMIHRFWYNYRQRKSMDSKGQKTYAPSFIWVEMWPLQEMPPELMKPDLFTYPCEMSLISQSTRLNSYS
- assay-name: cell-based or functional assay
*1 amine or outer side, *2 acyl side, *3 side chain or, on linkers, in order; H or OH if unused. Primed or numbered codes have the meaning given here. Side-chain parts run from the residue outwards. [ ]: non-standard residue; d: D form. The star is where a group is joined. PEG2DGA = 2-[2-[3-[2-[2-(3-aminopropoxy)ethoxy]ethoxy]propylamino-2-oxo-ethoxy]acetyl; PEG12 = NCCOCCOCCOCCOCCOCCOCCOCCOCCOCCOCCOCCOCCC(=O)O; Trp(5-OH) = N[C@@H](Cc1c[nH]c2ccc(O)cc12)C(=O)O; γGlu = O=C(O)[C@H](CCC(=O)[*:2])N[*:1]; Stearoyl = CCCCCCCCCCCCCCCCCC(=O)*; Palmitoyl = CCCCCCCCCCCCCCCC(=O)*; αMeF = C[C@](N)(Cc1ccccc1)C(=O)O; αMeK = C[C@](N)(CCCCN)C(=O)O; Nle = CCCC[C@H](N)C(=O)O; PEG2′ = PEG2 spacer unit; PEG2″ = not defined here; Aib = CC(C)(N)C(=O)O
Values of EC50 (nM), OVCAR 5 cells (cAMP) strictly less than 0.8 nM map to yes (1), and values of at least 0.8 nM map to no (0).

Solved cases below.
[
  {
    "binder": "Ac-LEGREKVRAK(Ac)I[Aib][Aib]EG[Nle]STWS[Aib]RK[PEG12]K([γGlu-γGlu-γGlu-Stearoyl])-NH2 [peptide of SEQ ID NO: 34]",
    "class-assignment": "no (0)"
  },
  {
    "binder": "Ac-LEGREKVRAK(Ac)I[Aib][Aib]EG[Nle]STWS[Aib]RKK(Ac)K([PEG2″-PEG2″-γGlu-γGlu-PEG2″-γGlu-Stearoyl])-NH2 [peptide of SEQ ID NO: 101]",
    "class-assignment": "yes (1)"
  },
  {
    "binder": "Ac-LEGREKVRAK(Ac)I[Aib][Aib]EG[Nle]ST[Trp(5-OH)]S[Aib]RKK(Ac)K([PEG2′-PEG2′-PEG2′-γGlu-γGlu-γGlu-Stearoyl])-NH2 [peptide of SEQ ID NO: 158]",
    "class-assignment": "yes (1)"
  },
  {
    "binder": "Ac-LEGREKVRAK(Ac)I[Aib][Aib]EG[Nle]STWS[Aib]RKK(Ac)K([PEG2′-PEG2′-γGlu-γGlu-γGlu-Palmitoyl])-NH2 [peptide of SEQ ID NO: 62]",
    "class-assignment": "no (0)"
  }
]

query: Could you please tell me whether EC50 (nM), OVCAR 5 cells (cAMP) recorded for Ac-LEGREKVRAQI[Aib][Aib]EG[Nle]STWS[Aib]RKK(Ac)[PEG2′][PEG2′][γGlu][γGlu]K([γGlu-Palmitoyl])-NH2 [peptide of SEQ ID NO: 118] is less than 0.8 nM?
result: no (0)

query: Continue with Ac-LEGREKVRAK(Ac)I[Aib][Aib]EG[Nle]ST[αMeF]S[αMeK]RAK(Ac)[PEG2″][PEG2″][PEG2″][PEG2″][γGlu][γGlu][γGlu]K([γGlu-Palmitoyl])-NH2 [peptide of SEQ ID NO: 152]
result: yes (1)

query: Please give the result for Ac-LEGREKVRAK(Ac)I[Aib][Aib]EG[Nle]STWS[Aib]RKK(Ac)K([PEG2DGA-γGlu-γGlu-γGlu-Stearoyl])-NH2 [peptide of SEQ ID NO: 94] too.
result: no (0)
